# Test system: U2OS
# Experiment description: Multiplex assay against U2OS
# Assay type: toxicity, cell-based
# Experimental setup: human, 12 h, 10 µM, compound concentration 10 uM
This section presents molecules with their documented Population Tubulin-Different-Phenotype (%) values.
Readout: Population Tubulin-Different-Phenotype (%)

INSERT INTO assay_data (molecule, units, measured_result) VALUES
  ('CCCn1c(=O)c2[nH]c(C3CCCC3)nc2n(CCC)c1=O', '%', 3),
  ('CCc1cc2cc(NS(=O)(=O)c3ccc(C#N)cc3)ccc2n(CC)c1=O', '%', 4),
  ('N#Cc1c(Oc2cccc(OS(=O)(=O)CCCC(F)(F)F)c2)cccc1C(F)(F)F', '%', 7),
  ('O=C(O)CCC/C=C\CC1C(O)CC(O)C1/C=C/C(O)COc1cccc(Cl)c1 (stereo not given) [CLOPROSTENOL]', '%', 3),
  ('COc1ccc2c(c1OCc1ccccc1)C[C@@H](C(=O)O)N(C(=O)C(c1ccccc1)c1ccccc1)C2 [OLODANRIGAN]', '%', 2);
